- Experiment summary: LNCaP granularity increase inducers, single-point recheck – cell-based, side scatter shift, flow cytometry, confirmation (AID 1069);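 further: LNCaP human prostate cancer cells in low-serum medium with charcoal-stripped FBS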
- Test settings: LNCaP differentiation, 4 d, side scatter shift, at 10 µM, stronger effect = higher value
So basically every entry gets a class from its side scatter shift, ranges being Low = under 5%, Medium = from 5% up to 10%, High = 10% and over

# Molecule, Label class
rows = [
    ("Cc1ccccc1-c1nc(CN2CCC(C(=O)N3CCN(c4ccccn4)CC3)CC2)c(C)o1", "High"),
    ("Cc1ccc(NC(=O)CCNS(=O)(=O)c2ccc3c(c2)oc(=O)n3C)c(C)c1", "Medium"),
    ("CCOC(=O)N1CCC(=C2c3ccc(Cl)cc3CCc3cccnc32)CC1", "Medium"),
    ("CC(C)n1c(=S)[nH]c2c1c(=O)[nH]c(=O)n2C", "Low"),
    ("CCOC(=O)N1CCC(NC(=O)c2cc3c(-c4cccc(OC)c4)nn(C)c3s2)CC1", "Low"),
    ("Cn1c(C(=O)NCCCN2CCN(c3cccc(Cl)c3)CC2)cc2c(=O)n(C)c3ccccc3c21", "Medium"),
    ("Cc1ccc2c(c1)c1c(n2CC(O)CNC(CO)(CO)CO)CCCC1 (stereo unspecified)", "High"),
    ("O=C(NCCCN1CCN(c2ccccc2F)CC1)C1CCN(S(=O)(=O)N2CCOCC2)CC1", "Medium"),
]

Categorize the following entry: Cc1oc(-c2ccc(Cl)cc2)nc1CN1CCCC(C(=O)NCCCN2CCOCC2)C1 (stereo unspecified)
High

What do you get for CCc1ccc(-c2nc(CN3CCC(C(=O)NCCc4ccc(OC)c(OC)c4)CC3)c(C)o2)cc1 ?
High

What do you get for CCN(CC)CCCNC(=O)c1cc(-c2cccc(Cl)c2)on1 ?
Low

What do you get for Cc1ccc2c(c1)NC(=O)C(CC(=O)NCCCN1CCN(c3cc(Cl)ccc3C)CC1)O2 (stereo unspecified) ?
Medium

What do you get for Cc1ccccc1CS(=O)(=O)CCC(=O)NCCCN1CCN(c2ccccc2F)CC1 ?
Medium

What do you get for CCCS(=O)(=O)N1CCCC(C(=O)NCCCN2CCN(c3ccc(F)cc3)CC2)C1 (stereo unspecified) ?
High

What do you get for CCCCC(=O)NCCc1ccc(S(N)(=O)=O)cc1 ?
High

What do you get for O=C1c2ccccc2C(Nc2ccc3c(c2)OCO3)N1Cc1ccc2c(c1)OCO2 (stereo unspecified) ?
Medium

What do you get for Cc1ccc(-c2noc(CCC(=O)NCCCN3CCN(c4ccc(F)cc4)CC3)n2)cc1 ?
High

What do you get for O=C(NCCCN1CCN(c2ccccc2F)CC1)C1CCC(=O)N1C1CCCCC1 (stereo unspecified) ?
Low

Cited source: PubChem BioAssay AID1069
